Hello, the source for this data is ChEMBL document CHEMBL4330107, in case you need it.

- System: Isocitrate dehydrogenase [NADP] cytoplasmic (Homo sapiens), O75874 [R132H]
- Sequence (O75874 whole entry R132H, the tested form may be a part): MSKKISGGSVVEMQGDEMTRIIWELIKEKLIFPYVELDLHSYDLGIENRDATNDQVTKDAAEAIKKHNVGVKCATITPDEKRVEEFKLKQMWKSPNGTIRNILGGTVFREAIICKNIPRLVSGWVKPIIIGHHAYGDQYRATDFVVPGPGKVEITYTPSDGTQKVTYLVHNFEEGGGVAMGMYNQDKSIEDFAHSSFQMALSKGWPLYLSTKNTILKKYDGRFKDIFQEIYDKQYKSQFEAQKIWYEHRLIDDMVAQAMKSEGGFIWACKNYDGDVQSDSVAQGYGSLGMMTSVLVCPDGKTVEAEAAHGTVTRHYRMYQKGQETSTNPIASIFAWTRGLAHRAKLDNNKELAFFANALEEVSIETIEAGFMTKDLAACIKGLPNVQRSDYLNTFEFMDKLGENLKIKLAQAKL
- TEST_DESCRIPTION: Inhibition of recombinant human N-terminal GST-fused IDH1 R132H mutant expressed in Escherichia coli at 20 ug/ml using alpha-ketoglutarate as substrate preincubated for 15 mins followed by substrate addition relative to control
Recorded inhibition by entry
RECORDED_ENDPOINT: inhibition (%)

- GIVEN_SMILES: "Cn1cc(C2=C(c3nn(CCCn4cncn4)c4ncccc34)C(=O)NC2=O)c2ccccc21"
  RESULT_UNIT: "%"
  REPORTED: 20.6
- GIVEN_SMILES: "Cn1nc(C2=C(c3c[nH]c4ccccc34)C(=O)NC2=O)c2cccnc21"
  RESULT_UNIT: "%"
  REPORTED: 38.1
- GIVEN_SMILES: "Cn1nc(C2=C(c3cn(CCCN4CCOCC4)c4ccccc34)C(=O)NC2=O)c2cccnc21"
  RESULT_UNIT: "%"
  REPORTED: 7.36
- GIVEN_SMILES: "Cn1cc(C2=C(c3nn(CCCN4CCOCC4)c4ncccc34)C(=O)NC2=O)c2ccccc21"
  RESULT_UNIT: "%"
  REPORTED: 17.3

* * *

- ASSAYED_TARGET: Isocitrate dehydrogenase [NADP] cytoplasmic (Homo sapiens, UniProt O75874, R132H)
- TEST_DESCRIPTION: Inhibition of recombinant human N-terminal GST-fused IDH1 R132H mutant expressed in Escherichia coli using alpha-ketoglutarate as substrate preincubated for 15 mins followed by substrate addition
Could you please mark true for values of IC50 below 800 nM and false for values at or above it?

- COMPOUND: "Cn1nc(C2=C(c3cn(CCCn4ccnc4)c4cc(F)ccc34)C(=O)NC2=O)c2cccnc21"
  QUALITATIVE_LABEL: "true"
- COMPOUND: "CCn1nc(C2=C(c3cn(CCCn4ccnc4)c4ccccc34)C(=O)NC2=O)c2cccnc21"
  QUALITATIVE_LABEL: "true"
- COMPOUND: "O=C1NC(=O)C(c2cn(CCCn3ccnc3)c3ccccc23)=C1c1cc[nH]c1"
  QUALITATIVE_LABEL: "false"
- COMPOUND: "O=C1NC(=O)C(n2nnc3ccccc32)=C1c1cn(CCCn2ccnc2)c2ccccc12"
  QUALITATIVE_LABEL: "false"
- COMPOUND: "Cn1nc(C2=C(c3cn(CCCCn4ccnc4)c4ccccc34)C(=O)NC2=O)c2cccnc21"
  QUALITATIVE_LABEL: "true"
- COMPOUND: "Cc1ccccc1C(C(=O)NC1CCCCC1)N(C(=O)Cn1ccnc1C)c1cccc(F)c1 (centres undefined)"
  QUALITATIVE_LABEL: "true"
- COMPOUND: "O=C1NC(=O)C(n2ccc3cnccc32)=C1c1cn(CCCn2ccnc2)c2ccccc12"
  QUALITATIVE_LABEL: "false"
- COMPOUND: "Cn1cc(C2=C(c3nn(CCCn4ccnc4)c4ncccc34)C(=O)NC2=O)c2ccccc21"
  QUALITATIVE_LABEL: "false"

* * *

- ASSAYED_TARGET: Isocitrate dehydrogenase [NADP] cytoplasmic (Homo sapiens, UniProt O75874, R132C)
- Sequence (O75874 2-414 R132C limits assumed): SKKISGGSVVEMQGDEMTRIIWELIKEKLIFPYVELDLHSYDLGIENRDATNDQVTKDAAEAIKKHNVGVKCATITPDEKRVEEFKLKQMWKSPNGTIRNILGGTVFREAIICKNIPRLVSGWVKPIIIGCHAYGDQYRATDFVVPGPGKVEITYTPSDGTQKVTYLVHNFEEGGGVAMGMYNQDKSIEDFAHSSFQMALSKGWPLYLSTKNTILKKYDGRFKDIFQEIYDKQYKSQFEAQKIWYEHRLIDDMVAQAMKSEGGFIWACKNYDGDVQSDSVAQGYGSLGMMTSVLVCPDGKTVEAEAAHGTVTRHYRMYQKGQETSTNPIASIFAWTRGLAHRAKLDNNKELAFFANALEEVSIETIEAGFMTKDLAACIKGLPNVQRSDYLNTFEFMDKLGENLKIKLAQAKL
- TEST_DESCRIPTION: Inhibition of recombinant human N-terminal GST-fused IDH1 R132C mutant expressed in Escherichia coli using alpha-ketoglutarate as substrate preincubated for 15 mins followed by substrate addition
Each entry below carries its reported IC50.
RECORDED_ENDPOINT: IC50 (nM)

- COMPOUND: "Cn1nc(C2=C(c3cn(CCCn4ccnc4)c4cc(Br)ccc34)C(=O)NC2=O)c2cccnc21"
  RESULT_UNIT: "nM"
  REPORTED: 460
- COMPOUND: "Cn1nc(C2=C(c3cn(CCCn4ccnc4)c4cc(F)ccc34)C(=O)NC2=O)c2cccnc21"
  RESULT_UNIT: "nM"
  REPORTED: 334
- COMPOUND: "Cc1ccccc1C(C(=O)NC1CCCCC1)N(C(=O)Cn1ccnc1C)c1cccc(F)c1 (configuration not stated)"
  RESULT_UNIT: "nM"
  REPORTED: 227
- COMPOUND: "Cn1nc(C2=C(c3cn(CCCn4ccnc4)c4cc(Cl)ccc34)C(=O)NC2=O)c2cccnc21"
  RESULT_UNIT: "nM"
  REPORTED: 423
- COMPOUND: "Cc1ccc2c(C3=C(c4nn(C)c5ncccc45)C(=O)NC3=O)cn(CCCn3ccnc3)c2c1"
  RESULT_UNIT: "nM"
  REPORTED: 483
- COMPOUND: "Cn1nc(C2=C(c3cn(CCCCn4ccnc4)c4ccccc34)C(=O)NC2=O)c2cccnc21"
  RESULT_UNIT: "nM"
  REPORTED: 415
- COMPOUND: "Cn1nc(C2=C(c3cn(CCCn4ccnc4)c4ccccc34)C(=O)NC2=O)c2cccnc21"
  RESULT_UNIT: "nM"
  REPORTED: 386
